Taken from patent US7291732B2.

molecular target: baculovirus-expressed VEGF receptor (human flk-1, KDR, VEGFR2) kinase domain (Homo sapiens); construct: VEGF receptor (human flk-1, KDR, VEGFR2) kinase domain; made in house; assay: VEGF receptor kinase activity inhibition, ELISA assay; format: biochemical; settings: 300 nM compound; 40 μM ATP; value printed in parentheses
Sequence (P35968 834-1162 limits assumed): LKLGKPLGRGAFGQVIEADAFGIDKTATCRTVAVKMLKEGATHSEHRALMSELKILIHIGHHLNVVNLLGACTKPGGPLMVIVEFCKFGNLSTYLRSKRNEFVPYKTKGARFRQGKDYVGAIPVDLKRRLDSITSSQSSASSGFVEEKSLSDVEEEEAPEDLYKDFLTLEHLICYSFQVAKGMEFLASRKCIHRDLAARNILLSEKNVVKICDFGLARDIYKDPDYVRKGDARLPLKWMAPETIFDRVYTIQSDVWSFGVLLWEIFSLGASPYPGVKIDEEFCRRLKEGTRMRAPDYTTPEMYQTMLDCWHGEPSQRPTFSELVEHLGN
Measured Quantity: VEGFR kinase (% inhibition @ 300 nM)

Example results:
| Compound | VEGFR kinase (% inhibition @ 300 nM) |
| --- | --- |
| O=C1NC(=O)c2c1c1c(c3[nH]c4ccccc4c23)-c2ccccc2C1CO (centres unmarked) [IV-15] | (7) % |
| CC(=O)NCCCn1c2ccccc2c2c3c(c4c(c21)-c1ccccc1CC4)C(=O)NC3=O [IV-25] | (0) % |
| N#CCCn1c2ccccc2c2c3c(c4c(c21)-c1ccccc1CC4)C(=O)NC3=O [IV-19] | (4) % |
| CC(C)(C)OC(=O)N1CCCC1C(=O)NCCCn1c2ccccc2c2c3c(c4c(c21)-c1ccccc1CC4)C(=O)NC3=O (centres unmarked) [IV-29] | (1) % |
| O=C1NC(=O)c2c1c1c(c3c2c2ccccc2n3CCCNC(=O)C2CCCN2)-c2ccccc2CC1 (centres unmarked) [IV-30] | (1) % |

Challenge: Record request: VEGFR kinase (% inhibition @ 300 nM) value, item O=C(NCCCn1c2ccccc2c2c3c(c4c(c21)-c1ccccc1CC4)C(=O)NC3=O)Nc1ccccc1 [IV-27]
Response given: (5) %
